- Test system: TMD-8
- experimental_details: Antiproliferative effect in lymphoma cell line TMD-8 (CellTiter-Glo)
- Type: cell-based
- reported_conditions: TMD-8, 5 days
- Description: Experimental purpose: The experiment aims to evaluate the inhibitory effects of the test compounds on cell proliferation in the diffuse large B-cell lymphoma (DLBCL) cell lines OCI-LY10 and TMD-8. The tumor cell lines were cultured in a 37° C., 5% CO2 incubator under the above culture conditions. […] • (1) Cells were stained with trypan blue and viable cells were counted. • (2) The cell concentration was adjusted to an appropriate concentration. […]
Structures can show the parent of a compound that is named as a salt.
endpoint_label: Maximum inhibition rate

response.value for O=C1CCC(c2coc3cc(NC(=O)CN4CCN(C[C@H]5CC[C@H](N6CC(NC(=O)c7coc(-c8ccnc(NCC9CC9)c8)n7)C(C(F)F)N6)CC5)CC4)ccc23)C(=O)N1 (some centres unmarked) [Hydrochloride of WX002] (field: Maximum inhibition rate) = 83.31%

response.value for O=C1CCC(c2coc3ccc4c(NC(=O)CN5CCN(C[C@H]6CC[C@H](n7cc(NC(=O)c8coc(-c9ccnc(NCC%10CC%10)c9)n8)c(C(F)F)n7)CC6)CC5)cccc4c23)C(=O)N1 (some centres unmarked) [Trifluoroacetate of WX011] (field: Maximum inhibition rate) = 94.65%

response.value for O=C1CCC(c2noc3ccc4c(NC(=O)CN5CCN(C[C@H]6CC[C@H](n7cc(NC(=O)c8coc(-c9ccnc(NCC%10CC%10)c9)n8)c(C(F)F)n7)CC6)CC5)cccc4c23)C(=O)N1 (some centres unmarked) [Hydrochloride of WX014] (field: Maximum inhibition rate) = 89.86%

response.value for O=C1CCC(c2noc3ccc4c(NC(=O)C(F)(F)C5CCN(CC6CCC(n7cc(NC(=O)c8coc(-c9ccnc(NCC%10CC%10)c9)n8)c(C(F)F)n7)CC6)CC5)cccc4c23)C(=O)N1 (centres unmarked) [Hydrochloride of WX018] (field: Maximum inhibition rate) = 99.53%

response.value for CC(C)(O)c1cc2nc([C@H]3CC[C@H](CN4CCN(CC(=O)Nc5ccc6c(C7CCC(=O)NC7=O)noc6c5)CC4)CC3)sc2cc1NC(=O)c1cccc(C(F)(F)F)n1 (some centres unmarked) [Formate of WX026] (field: Maximum inhibition rate) = 99.92%

----------
- target_desc: IKZF1 (Homo sapiens, UniProt Q13422+Q96SW2)
- Construct: host or cells: MM.1S cells
- Sequence (Q13422 whole entry): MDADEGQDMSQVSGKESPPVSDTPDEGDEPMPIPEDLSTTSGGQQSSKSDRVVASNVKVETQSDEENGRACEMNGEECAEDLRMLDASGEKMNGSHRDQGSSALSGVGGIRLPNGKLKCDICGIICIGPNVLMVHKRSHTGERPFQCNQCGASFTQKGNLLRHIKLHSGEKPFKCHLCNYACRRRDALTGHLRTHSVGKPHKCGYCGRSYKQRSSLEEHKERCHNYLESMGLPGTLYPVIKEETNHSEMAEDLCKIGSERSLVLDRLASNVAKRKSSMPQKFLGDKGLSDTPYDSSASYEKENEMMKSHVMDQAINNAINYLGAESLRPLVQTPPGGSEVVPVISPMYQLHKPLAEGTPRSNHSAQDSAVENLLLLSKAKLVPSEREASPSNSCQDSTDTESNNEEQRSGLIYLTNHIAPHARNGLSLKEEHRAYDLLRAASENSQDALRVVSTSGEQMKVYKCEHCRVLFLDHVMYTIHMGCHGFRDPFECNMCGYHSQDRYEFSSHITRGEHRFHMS
- Sequence (Q96SW2 whole entry): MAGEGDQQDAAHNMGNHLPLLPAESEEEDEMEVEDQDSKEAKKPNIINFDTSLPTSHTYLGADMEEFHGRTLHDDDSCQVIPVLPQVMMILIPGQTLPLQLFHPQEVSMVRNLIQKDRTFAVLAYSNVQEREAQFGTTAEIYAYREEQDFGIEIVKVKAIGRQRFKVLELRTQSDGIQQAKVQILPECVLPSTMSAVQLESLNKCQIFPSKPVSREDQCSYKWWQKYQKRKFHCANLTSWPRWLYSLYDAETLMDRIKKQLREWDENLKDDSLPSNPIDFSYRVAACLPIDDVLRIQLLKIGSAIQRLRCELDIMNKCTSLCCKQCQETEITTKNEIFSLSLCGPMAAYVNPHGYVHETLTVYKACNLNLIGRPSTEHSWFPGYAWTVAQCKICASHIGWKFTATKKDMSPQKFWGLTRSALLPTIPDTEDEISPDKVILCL
- Sequence (Q16531 whole entry partner): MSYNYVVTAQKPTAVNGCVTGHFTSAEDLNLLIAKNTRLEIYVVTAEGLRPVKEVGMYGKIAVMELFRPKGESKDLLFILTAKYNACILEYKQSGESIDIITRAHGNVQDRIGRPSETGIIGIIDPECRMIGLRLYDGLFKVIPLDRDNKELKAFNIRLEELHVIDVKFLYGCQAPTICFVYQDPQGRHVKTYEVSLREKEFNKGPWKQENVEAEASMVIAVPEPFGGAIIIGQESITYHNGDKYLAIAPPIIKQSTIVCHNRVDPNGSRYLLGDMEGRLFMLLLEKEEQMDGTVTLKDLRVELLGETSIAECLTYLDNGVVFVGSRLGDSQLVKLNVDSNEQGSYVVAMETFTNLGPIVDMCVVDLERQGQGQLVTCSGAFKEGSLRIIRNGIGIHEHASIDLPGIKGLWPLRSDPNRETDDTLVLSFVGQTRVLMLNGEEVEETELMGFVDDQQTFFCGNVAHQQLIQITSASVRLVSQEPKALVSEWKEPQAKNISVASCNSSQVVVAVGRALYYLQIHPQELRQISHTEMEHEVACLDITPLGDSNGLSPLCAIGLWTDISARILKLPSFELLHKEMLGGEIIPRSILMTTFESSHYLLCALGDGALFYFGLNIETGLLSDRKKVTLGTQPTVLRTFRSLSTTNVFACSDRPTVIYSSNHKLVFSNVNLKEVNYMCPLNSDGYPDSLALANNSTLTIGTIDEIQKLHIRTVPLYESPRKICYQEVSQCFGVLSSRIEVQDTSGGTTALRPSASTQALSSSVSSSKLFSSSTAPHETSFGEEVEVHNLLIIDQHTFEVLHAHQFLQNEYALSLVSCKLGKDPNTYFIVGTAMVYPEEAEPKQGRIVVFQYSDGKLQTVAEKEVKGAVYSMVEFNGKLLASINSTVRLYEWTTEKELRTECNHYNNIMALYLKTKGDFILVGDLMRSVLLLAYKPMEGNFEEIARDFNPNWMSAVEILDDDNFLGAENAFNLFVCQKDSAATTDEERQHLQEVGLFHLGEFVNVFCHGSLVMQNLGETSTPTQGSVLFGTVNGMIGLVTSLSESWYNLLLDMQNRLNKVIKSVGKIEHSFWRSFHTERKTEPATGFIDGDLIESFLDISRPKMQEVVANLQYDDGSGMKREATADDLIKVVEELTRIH
- experimental_details: In Cell Western of IKZF1 protein expression level in MM.1S cells
- Assay type: cell-based
- reported_conditions: MM1.S; IKZF1, MM.1S cells, 24 hours; read-out: Maximum degradation rate Dmax
- From the text: Experimental objective: The experiment aims to assess the degradation effect of the test compounds on IKZF1 and 1KZF3 proteins in MM.1S cells by evaluating the impact of the test compounds on the expression levels of IKZF1 and IZKZF3 proteins in MM.1S cells. • Cell lines: MMN.1 S cell (sourced from ATCC; Cat. No CRL-2974) • Negative control: 0.100 DMSO. […]
Where a name gives a salt, the structure may show the parent alone.
endpoint_label: Dmax (%)
Report the value in % with no unit label.

response.value for CC(C)(O)c1cc2nc([C@H]3CC[C@H](CN4CCN(CC(=O)Nc5ccc6c(C7CCC(=O)NC7=O)noc6c5)CC4)CC3)sc2cc1NC(=O)c1cccc(C(F)(F)F)n1 (some centres unmarked) [Formate of WX026] (field: Dmax) = 84.4

response.value for CC(C)(O)c1cc2nc([C@H]3CC[C@H](CN4CCN(CC(=O)Nc5ccc6c(ccc7onc(C8CCC(=O)NC8=O)c76)c5)CC4)CC3)sc2cc1NC(=O)c1cccc(C(F)(F)F)n1 (some centres unmarked) [Formate of WX020] (field: Dmax) = 85.2

response.value for CC(C)(O)c1cc2nc([C@H]3CC[C@H](CN4CCN(CC(=O)Nc5cccc6c(C7CCC(=O)NC7=O)noc56)CC4)CC3)sc2cc1NC(=O)c1cccc(C(F)(F)F)n1 (some centres unmarked) [Formate of WX029] (field: Dmax) = 61.8

response.value for O=C1CCC(c2noc3cc(NC(=O)CN4CCN(C[C@H]5CC[C@H](n6cc(NC(=O)c7coc(-c8ccnc(NCC9CC9)c8)n7)c(C(F)F)n6)CC5)CC4)ccc23)C(=O)N1 (some centres unmarked) [Hydrochloride of WX025] (field: Dmax) = 72.2

response.value for CC(C)(O)c1cc2nc(C3CCC(CN4CCN(CC(=O)Nc5cccc6c5ccc5onc(C7CCC(=O)NC7=O)c56)CC4)CC3)sc2cc1NC(=O)c1cccc(C(F)(F)F)n1 (centres unmarked) [Formate of WX017] (field: Dmax) = 62.9

----------
Kindly supply the reported bioavailability values for the records listed here.
- experimental_details: Pharmacokinetic evaluation in mice
- Assay type: in vivo, C57BL/6N or CD-1 male mice
- reported_conditions: male, CD-1, mouse, plasma, po, intragastric administration 10 mg/kg, experimental operation B, fasted overnight, read-out: Bioavailability F
Where a name gives a salt, the structure may show the parent alone.
Report the value in % with no unit label.

response.value for O=C1CCC(c2noc3ccc4c(NC(=O)C(F)(F)C5CCN(CC6CCC(n7cc(NC(=O)c8coc(-c9ccnc(NCC%10CC%10)c9)n8)c(C(F)F)n7)CC6)CC5)cccc4c23)C(=O)N1 (centres unmarked) [Hydrochloride of WX018] (field: bioavailability) = 6.59

response.value for CC(C)(O)c1cc2nc(C3CCC(CN4CCN(CC(=O)Nc5cccc6c5ccc5onc(C7CCC(=O)NC7=O)c56)CC4)CC3)sc2cc1NC(=O)c1cccc(C(F)(F)F)n1 (centres unmarked) [Formate of WX017] (field: bioavailability) = 31.9

----------
- target_desc: IRAK4 (Homo sapiens, UniProt Q9NWZ3)
- Construct: expressed in transfected cells; host or cells: K562 IRAK4-HiBiT cells
- Sequence (Q9NWZ3 whole entry): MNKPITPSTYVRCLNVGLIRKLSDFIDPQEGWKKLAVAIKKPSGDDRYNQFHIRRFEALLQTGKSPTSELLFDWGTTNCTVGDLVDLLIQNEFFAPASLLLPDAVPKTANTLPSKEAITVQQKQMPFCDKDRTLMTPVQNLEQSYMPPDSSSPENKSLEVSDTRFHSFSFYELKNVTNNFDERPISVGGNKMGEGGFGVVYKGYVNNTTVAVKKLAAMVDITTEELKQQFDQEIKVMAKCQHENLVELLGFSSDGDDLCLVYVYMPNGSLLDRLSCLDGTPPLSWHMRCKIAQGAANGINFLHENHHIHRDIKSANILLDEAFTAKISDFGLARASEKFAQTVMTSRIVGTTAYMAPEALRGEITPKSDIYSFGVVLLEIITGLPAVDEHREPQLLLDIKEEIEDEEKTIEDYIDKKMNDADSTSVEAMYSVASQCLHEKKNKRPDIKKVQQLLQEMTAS
- experimental_details: Target protein degradation in K562 IRAK4-HiBiT cells (Nano-Glo HiBiT)
- Type: cell-based
- reported_conditions: 16 to 18 hours, read-out: Maximum degradation rate
Where a name gives a salt, the structure may show the parent alone.
endpoint_label: Dmax (%)
Report the value in % with no unit label.

response.value for O=C1CCC(c2coc3ccc4cc(NC(=O)CN5CCN(C[C@H]6CC[C@H](n7cc(NC(=O)c8coc(-c9ccnc(NCC%10CC%10)c9)n8)c(C(F)F)n7)CC6)CC5)ccc4c23)C(=O)N1 (stereo partly drawn) (field: Dmax) = 97.4

response.value for CC(C)(O)c1cc2nc([C@H]3CC[C@H](CN4CCC(C(F)(F)C(=O)Nc5cccc6c5ccc5onc(C7CCC(=O)NC7=O)c56)CC4)CC3)sc2cc1NC(=O)c1cccc(C(F)(F)F)n1 (stereo partly drawn) [Formate of WX019] (field: Dmax) = 92

response.value for CC(C)(O)c1cc2nc([C@H]3CC[C@H](CN4CCC(C(F)(F)C(=O)Nc5cccc6c(C7CCC(=O)NC7=O)noc56)CC4)CC3)sc2cc1NC(=O)c1cccc(C(F)(F)F)n1 (stereo partly drawn) [Formate of WX023] (field: Dmax) = 114

response.value for O=C1CCC(c2noc3cc(NC(=O)CN4CCN(C[C@H]5CC[C@H](n6cc(NC(=O)c7coc(-c8ccnc(NCC9CC9)c8)n7)c(C(F)F)n6)CC5)CC4)ccc23)C(=O)N1 (stereo partly drawn) [Hydrochloride of WX025] (field: Dmax) = 105

response.value for CN(CCCOCCCc1ccc2c(ccc3occ(C4CCC(=O)NC4=O)c32)c1)C[C@H]1CC[C@H](n2cc(NC(=O)c3coc(-c4ccnc(NCC5CC5)c4)n3)c(C(F)F)n2)CC1 (stereo partly drawn) [Hydrochloride of WX008] (field: Dmax) = 82.2

response.value for CN(CCCOCCCc1ccc2c(ccc3onc(C4CCC(=O)NC4=O)c32)c1)C[C@H]1CC[C@H](n2cc(NC(=O)c3coc(-c4ccnc(NCC5CC5)c4)n3)c(C(F)F)n2)CC1 (stereo partly drawn) [Hydrochloride of WX016] (field: Dmax) = 93.1

----------
- Test system: OCI-LY10
- experimental_details: Antiproliferative effect in lymphoma cell line OCI-LY10 (CellTiter-Glo)
- Type: cell-based, human
- reported_conditions: OCI-LY10, 5 days
Where a name gives a salt, the structure may show the parent alone.
endpoint_label: Maximum inhibition rate
Number first, unit second.

response.value for CC(C)(O)c1cc2nc([C@H]3CC[C@H](CN4CCN(CC(=O)Nc5ccc6c(ccc7onc(C8CCC(=O)NC8=O)c76)c5)CC4)CC3)sc2cc1NC(=O)c1cccc(C(F)(F)F)n1 (some centres unmarked) [Formate of WX020] (field: Maximum inhibition rate) = 94.96%

response.value for O=C1CCC(c2noc3ccc4c(NC(=O)C(F)(F)C5CCN(CC6CCC(n7cc(NC(=O)c8coc(-c9ccnc(NCC%10CC%10)c9)n8)c(C(F)F)n7)CC6)CC5)cccc4c23)C(=O)N1 (centres unmarked) [Hydrochloride of WX018] (field: Maximum inhibition rate) = 99.92%

response.value for O=C1CCC(c2noc3ccc4c(NC(=O)CN5CCN(C[C@H]6CC[C@H](n7cc(NC(=O)c8coc(-c9ccnc(NCC%10CC%10)c9)n8)c(C(F)F)n7)CC6)CC5)cccc4c23)C(=O)N1 (some centres unmarked) [Hydrochloride of WX014] (field: Maximum inhibition rate) = 94.54%

response.value for O=C1CCC(c2coc3ccc4c(NC(=O)CN5CCN(C[C@H]6CC[C@H](n7cc(NC(=O)c8coc(-c9ccnc(NCC%10CC%10)c9)n8)c(C(F)F)n7)CC6)CC5)cccc4c23)C(=O)N1 (some centres unmarked) [Trifluoroacetate of WX011] (field: Maximum inhibition rate) = 93.42%

response.value for O=C1CCC(c2noc3cc(NC(=O)CN4CCN(C[C@H]5CC[C@H](n6cc(NC(=O)c7coc(-c8ccnc(NCC9CC9)c8)n7)c(C(F)F)n6)CC5)CC4)ccc23)C(=O)N1 (some centres unmarked) [Hydrochloride of WX025] (field: Maximum inhibition rate) = 97.39%
